- ASSAY EXPLANATION: yeast display, Sf9 membrane polyspecificity reagent, FACS + sequencing; frameworks hold sequencing errors

| PRIMARY SEQUENCE | polyreactivity (PSR sort gate) |
| --- | --- |
| QVQLVESGGGLVQAGGSLRLSCAASGRTFYGYAMGWYRQAPGKERELVATITRRGGSTYYADSVKGRFTISRDNAKNTVYLQMNSLKPEDTAVYYCARQGDQYYRDGDDYWGQGTQVTVSS | high polyreactivity |
| QVQLVESGGGLVQAGCSLRLSCAASGRIFGGYAMGWYRQAPGKERELVAAISSGGNTKYADSVKGRFTISRDNAKNTVYLQMNSLKPEDSAVYYCAAKFAQPDYRYDYWGQGTQVSVSS | high polyreactivity |
| QVQLVESGGGIVQAGGSLRISSAASGSIFGYYAMGWYIQEPGKERELVADITVRGGSTYYADSVKGRFTISRDNAKNTVYLQMNSLKPEDTAVYYCAAAQYTFWDGDSWGQGTQVTVSS | high polyreactivity |
| QVQLVESGGGLDQAGGSLRLSCAASGRTFFYNAMGWYRQAPGKESEWDAAISYSGGSTYYADSVKGRFTISRDNAKNTVYLQMNSLKPEDTAVYYCAARDKTRSVRRTGMDYWGQGTQVTVSS | high polyreactivity |
| QVQLVESGGGLVQAGGSLRLSCAASGYIFGSYVMGWYRQAPGKERELVAAISRRGGSTYYADSVKGRFTISRDNAKNTVNLQMNSLKPEYTAVYYFSADYGQYAKYDYWGQGTQVTVSS | high polyreactivity |
| QVQLVESGGGLVQAGGSLRLSCAASGYIFYSCAMGWYRQAPGKERELVATISSGGSTYYSDSVKGRFTISRDNAKNTVYLQMNSLKPEDTAVYYCNAKMYKPPFDYWGQGTQVTVSS | low polyreactivity |
| QVQLVESGGGLVQAGGSLRLICAASGRIFFHYAMGWYRQAPGKVRELVAVISSTGGITNYADSVKGRFTISRDNAKNTVYLQMNSLKPEDTAVYYCNTVPRPFERYGYWGQGTQVTVSS | low polyreactivity |
| QGQLVESGGGLVQAGGSLRLSCAASGYIFNPNAMGWYRQGPGKERDLFAGITWRGDRTYYADSVKGRFTISRDNAKNTVYLQMNCLKPEDTAVYYCNGAGADRWSYSSNIRRYYYWGHGTQVTVSS | high polyreactivity |
| QVQLVESGGGLVQAGGSLRLSCAASGFTFRVYAMGWYRQAPGKERELVAAITKRGGSTYYADSVRGRFTISRDNAKNTVYLQMNSLKPEDTAVYYCATENTPHYASHGYWGQGTQVTVSS | high polyreactivity |
| QGQLVESGGGLVQAGGSLRLSCAASGRTFSVNDMGWYRQAPGKERELVAAMSFSGGRTYYADSVKGRFTISRDNAKNTVYLQMNSLKPEDTAVYYCAADIRGYDYWGQGTQVTVSS | high polyreactivity |
| QVQLVESGGGLVQAGGSLRLSCAASGRIFSQNAMGWYRKAPGKERELVAAIRYSTGSTYYADSVKGRFTISRDNAKNTVYLQMNSLKPEDTAVYYCAADRWVSGYRRPRRGQAHYYWGQGTQVTVSS | high polyreactivity |
| QVQLQESGGGLVQAGGSLRLSCAASGYISHADEMGWYRQAPGKEHELVASISNGGSTNYADSVKGRFTISRDNAKNTVYLQRNSLKSEDTAVYYCAAWTGQVDIHYYWGQGTQVTVSS | low polyreactivity |
| QVQLVESGGGLVQAGGSLRLSCAASGSTFYYNAMGWYRQAPGKETELVADISWRGGITYYADSVKGRFTISRDNAKNTVYLQMNSLKPEDTAVYYCNADAESFDDGYWGQGTQVTVSS | low polyreactivity |
| QVQHVESAGGLVQAGGSLRLSCAASGSIFWYAMGWYRQAPGKERELVDGISRGGSTYYADSVKGRFTISRDNAKNTVYLQMNSLKPEDTAVYYFNTAGYYGTPYNYWGQGTQVTVSS | low polyreactivity |
| QVQLVESGGGLVQAGGSLRLSCAASGGTLGLNAMGWYRQAPGKEREFVAAINRSGGSTRYADSVKGRFTISRDNAKNTVYLQMNSLKPEDTAVYSCAAVGYWGPSGRHKSSKYEYWGQGTQVTVSS | high polyreactivity |
| QVQLVESGGGLVQAGRSLRLSCAASGRIFSYNAMGWYRQAPGKETELVAAITFSGGRTYYADSVKGRFTISRDNAKNTVYLQMNSLKPEDTAVYYCNAYWQGYGYDYWGQGTQVTVSS | low polyreactivity |
| QVQLVESGGVLVQAGGSLRLSCAASGFTFDYYAMGWYIPAPGKERELVASISYNGGITNYADSVQGRFTISRDNAKNTVFLHMHSLKPEDTAVYYWNAVPLYYWRFDYWGQGTQVTVSS | low polyreactivity |
| QVQLVESGGGLVQAGGSLRLSCAASGRTSVINAMGWYRQAPGKERELVATISRGGSTNYADSVKGRFTISRDNAKNTVYLQMNSLIPDDTAVYYCNADEQNESFIWSFTIIYDYWGQGTQVTVSS | low polyreactivity |
| QVQLVESGGGLVQAGGSLRLSCAASGSTFRQNAMGWYRQAPGKERELVAAITYRVASTYYADSVKGRFTISRDNAKNTVYLQMNSLKPEDTAVYYCAARFGSGFNYWGQGTQVTVSS | high polyreactivity |
| QVQLVESGGGLVQAGGSLRLSCAASGSIFYKYVMGWYRQAPGKERELVAAISRGGGSTYYADSVKGRFTISRDNAKNTVYLQMNSLKPEDTAVYYCNAVGRPRYGHGFDHWGQGTQVTVSS | high polyreactivity |
| QVQLVESGGGLVQAGGSLRLSCAASGRTFYPYVMGWYRQAPGKEREFVAAISGTGGSTYYADSVKGRFTISRDNAKNTVYLQMNSLKPEDTAVYYCNRRIPYTSYSYGYWGQGTQVTVSS | high polyreactivity |

This collection of values is drawn from the nanobody polyreactivity screen of Harvey et al. (2022).
